- System: Wolbachia pipientis
- method.description: Anti-Wolbachia Cell-Based Screen
- Assay type: functional
- Design: scale not given: in the data most compounds retested in dose-response had high values
- stated.conditions: 5 µM
In all, about 48,000 compounds went through this assay and about 13,000 (27%) showed an effect of 50% or more. The list shows a part of the results.
recorded.metric: Percent Effect (%)
Reply numerically in %, unit not repeated.

Asked: Looking for the measured Percent Effect of c1ccc(CNC[C@H]2COCc3nc4cccnc4n32)cc1 , can you help?
Given back: 10.55

====

- System: Wolbachia pipientis
- method.description: Anti-Wolbachia Cell-Based Screen
- Format: functional
- Design: scale not given: in the data most compounds retested in dose-response had high values
- stated.conditions: 5 µM
Among all 48,000 compounds or so, about 13,000 (27%) showed an effect of 50% or more. The list shows a part of the results.
Reported Percent Effect values for a set of compounds
Answer with a number only, understood to be in %.

Solved entries (count: 4):
{"compound": "O=C(NCCNc1cncc(Br)c1)c1ccc(O)cc1", "units.text": "%", "Percent Effect": -0.2825}
{"compound": "CC1CCN(C)c2ccccc2N1C(=O)c1ccn(C)c(=O)c1 (stereo unspecified)", "units.text": "%", "Percent Effect": -9.489}
{"compound": "Cn1cc(CNC2CCS(=O)(=O)C2)c(-c2cc3ccccc3o2)n1 (stereo unspecified)", "units.text": "%", "Percent Effect": -8.31}
{"compound": "CCc1cc(NC2CCS(=O)(=O)C2)nc(N2CCCCC2)n1 (stereo unspecified)", "units.text": "%", "Percent Effect": -10.03}

Asked: Quick check: Percent Effect of CC1(C)Cc2cc(-c3cncn3CCNC3CCS(=O)(=O)C3)ccc2O1.Cl (stereo unspecified) ?
Given back: 102.8

Asked: Same for CCc1nncn1CCNC(=O)Nc1ccc2c(c1)CCCO2
Given back: -5.053
